# system.under.test: human leukocyte elastase (HLE) (Homo sapiens, UniProt P08246)
# Sequence (P08246 30-267): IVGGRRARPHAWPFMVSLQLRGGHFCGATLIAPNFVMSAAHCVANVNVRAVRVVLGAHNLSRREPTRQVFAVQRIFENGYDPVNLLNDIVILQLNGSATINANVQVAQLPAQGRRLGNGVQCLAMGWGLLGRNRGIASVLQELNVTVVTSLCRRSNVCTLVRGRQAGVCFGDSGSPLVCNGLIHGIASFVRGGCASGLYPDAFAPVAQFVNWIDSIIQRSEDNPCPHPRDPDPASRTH
# assay.comment: in vitro anti-elastase activity, substrate Me-OSAAPV-p-NA, spectrophotometry
# Type: biochemical
# stated.conditions: compound concentration 0.1%; HLE 40 milliunits per ml; 37° C., 60 minutes
value.type: % inhibition of the control elastase activity (%)

compound="CCOC(=O)CNC(=O)C(C(C)C)N(Cc1ccccc1)C(=O)CP(=O)(OCC)OCC (stereo not shown) [Compound B]" reported_measurement=17
compound="CC(=O)N(c1cccc(C(F)(F)F)c1)C(C(=O)NCC(=O)O)C(C)C (stereo not shown) [Example 2]" reported_measurement=67

A. CC(=O)N(Cc1ccccc1)C(C(=O)NCC(=O)O)C(C)C (stereo not shown) [Compound C]
B. CCOC(=O)CNC(=O)C(C(C)C)N(Cc1ccccc1)C(C)=O (stereo not shown) [Compound D]
Problem: Select one: A or B . Criterion: greater recorded % inhibition of the control elastase activity. Give the chosen item's label as your response.
Result: A
(A: 20%, B: 13%)
